B1: KCNK9 (parent)
chain: CFITLTTIGFGDYVALQTKGALQK

# Variants of: B1
# assay-info: protein stability index of a GFP-peptide fusion (GPS, HEK-293T) (PSI 1-6); higher = more stable;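 note: lentivirally expressed fusions sorted by FACS into six bins by GFP to DsRed ratio, PSI derived from sequencing read proportions per bin multiplied by bin number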
# assay-setup: c terminus: a fixed tail appended
Decide using protein stability index: a value greater than or equal to 3 is MET, a smaller one is NOT MET.

Solved cases (5 shown):
[[record]]
mutant_code = "I8N"
label_class = "NOT MET"

[[record]]
mutant_code = "G20C"
label_class = "MET"

[[record]]
mutant_code = "D12C"
label_class = "MET"

[[record]]
mutant_code = "F10S"
label_class = "NOT MET"

[[record]]
mutant_code = "C1E"
label_class = "NOT MET"


Is reported protein stability index greater than or equal to 3 here: `L5F`
MET

Another variant: `I8C`
NOT MET

Another variant: `V14G`
NOT MET

Another variant: `I8E`
NOT MET
